Reference source: patent US20240024488A1

# TEST_SYSTEM: HiBit-BRG1 fusion protein (Homo sapiens)
# Construct: expressed in transfected cells
# Sequence (P51532 whole entry, the tested form may be a part): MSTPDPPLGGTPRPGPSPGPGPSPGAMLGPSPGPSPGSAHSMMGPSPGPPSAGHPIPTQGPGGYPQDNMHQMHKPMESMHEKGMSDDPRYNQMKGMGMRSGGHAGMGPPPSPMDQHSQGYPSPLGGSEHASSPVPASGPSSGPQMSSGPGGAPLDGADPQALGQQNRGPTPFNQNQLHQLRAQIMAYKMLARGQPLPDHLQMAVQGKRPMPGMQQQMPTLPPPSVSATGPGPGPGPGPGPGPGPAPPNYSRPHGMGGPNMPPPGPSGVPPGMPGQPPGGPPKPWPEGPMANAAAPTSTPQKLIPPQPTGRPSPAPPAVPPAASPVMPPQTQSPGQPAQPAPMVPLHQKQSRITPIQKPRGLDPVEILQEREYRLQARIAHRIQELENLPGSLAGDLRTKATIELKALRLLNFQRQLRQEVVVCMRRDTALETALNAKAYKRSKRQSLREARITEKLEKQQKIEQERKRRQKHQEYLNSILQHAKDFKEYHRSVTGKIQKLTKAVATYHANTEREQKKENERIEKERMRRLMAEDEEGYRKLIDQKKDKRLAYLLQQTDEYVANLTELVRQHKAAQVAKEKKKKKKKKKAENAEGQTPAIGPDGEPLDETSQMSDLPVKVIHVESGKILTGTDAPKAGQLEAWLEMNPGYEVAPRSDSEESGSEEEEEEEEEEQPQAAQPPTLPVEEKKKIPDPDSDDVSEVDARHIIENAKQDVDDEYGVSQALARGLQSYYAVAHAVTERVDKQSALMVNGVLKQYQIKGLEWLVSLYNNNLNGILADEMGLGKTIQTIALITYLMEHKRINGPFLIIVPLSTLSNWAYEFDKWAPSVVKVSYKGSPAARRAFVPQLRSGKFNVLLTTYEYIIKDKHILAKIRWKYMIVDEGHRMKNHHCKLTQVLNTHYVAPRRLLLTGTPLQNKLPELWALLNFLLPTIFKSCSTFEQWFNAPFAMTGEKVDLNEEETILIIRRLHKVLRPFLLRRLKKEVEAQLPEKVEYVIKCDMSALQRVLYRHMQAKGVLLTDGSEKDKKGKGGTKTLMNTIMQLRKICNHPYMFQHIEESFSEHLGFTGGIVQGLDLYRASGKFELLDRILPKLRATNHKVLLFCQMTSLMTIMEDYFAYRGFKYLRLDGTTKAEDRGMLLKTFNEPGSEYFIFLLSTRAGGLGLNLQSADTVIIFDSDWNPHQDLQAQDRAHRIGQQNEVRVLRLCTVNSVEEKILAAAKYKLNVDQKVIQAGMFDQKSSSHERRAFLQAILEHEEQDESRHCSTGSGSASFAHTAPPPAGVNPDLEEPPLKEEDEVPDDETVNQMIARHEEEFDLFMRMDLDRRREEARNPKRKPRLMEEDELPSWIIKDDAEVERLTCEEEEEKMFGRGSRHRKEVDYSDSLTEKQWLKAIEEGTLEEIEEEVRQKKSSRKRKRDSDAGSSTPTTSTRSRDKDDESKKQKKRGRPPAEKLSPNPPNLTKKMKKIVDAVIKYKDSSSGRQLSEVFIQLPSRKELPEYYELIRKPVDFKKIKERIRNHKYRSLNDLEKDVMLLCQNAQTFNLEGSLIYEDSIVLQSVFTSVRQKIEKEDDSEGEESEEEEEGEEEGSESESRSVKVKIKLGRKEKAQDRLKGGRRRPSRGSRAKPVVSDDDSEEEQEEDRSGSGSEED
# ASSAY_METHOD_TEXT: HiBiT-BRG1 cell-based degradation assay (Nano-Glo HiBiT Lytic Detection, 24 h)
# MEASUREMENT_SETUP: HeLa cell line expressing HiBit-BRG1 and LgBit, read-out: BRG1 HiBit Degradation Maximum (%)
Below, each entry is listed with its recorded Dmax.

Solved cases below.
Cc1ncsc1-c1ccc([C@H](C)NC(=O)[C@@H]2C[C@@H](O)CN2C(=O)[C@@H](c2cc(OCCN3CCC[C@H]3c3cc4cc(-c5ccccc5O)nnc4[nH]3)no2)C(C)C)cc1 (racemic) = < 50%
Cc1ncsc1-c1ccc([C@H](C)NC(=O)[C@@H]2C[C@@H](O)CN2C(=O)[C@@H](c2cc(OCCN3CC[C@H](c4c[nH]c5nnc(-c6ccccc6O)cc45)C3)no2)C(C)C)cc1 (racemic) = < 50%
Cc1ncsc1-c1ccc([C@H](C)NC(=O)[C@@H]2C[C@@H](O)CN2C(=O)[C@@H](c2cc(OCCCN[C@H]3CCc4[nH]c5nnc(-c6ccccc6O)cc5c4C3)no2)C(C)C)cc1 = < 50%
O=C1CCC(N2C(=O)c3cccc(NCCCCCCCCC(=O)N4CC(c5cc6cc(-c7ccccc7O)nnc6[nH]5)C4)c3C2=O)C(=O)N1 (stereo not drawn) = < 50%
Cc1ncsc1-c1ccc([C@H](C)NC(=O)[C@@H]2C[C@@H](O)CN2C(=O)[C@@H](c2cc(OCCN3CC(CCCc4cc5cc(-c6ccccc6O)nnc5[nH]4)C3)no2)C(C)C)cc1 (racemic) = > 50%

Please fill in: Dmax reported for Cc1ncsc1-c1ccc([C@H](C)NC(=O)[C@@H]2C[C@@H](O)CN2C(=O)[C@@H](c2cc(OCCN3CC(C)(c4cc5cc(-c6ccccc6O)nnc5[nH]4)C3)no2)C(C)C)cc1 (racemic) = < 50%

Please fill in: Dmax reported for Cc1ncsc1-c1ccc(CNC(=O)[C@@H]2C[C@@H](O)CN2C(=O)[C@@H](NC(=O)CCCC(=O)N[C@@H]2CCc3[nH]c4nnc(-c5ccccc5O)cc4c3C2)C(C)(C)C)cc1 = < 50%

Please fill in: Dmax reported for Cc1ncsc1-c1ccc([C@H](C)NC(=O)[C@@H]2C[C@@H](O)CN2C(=O)C(c2cc(C3CCN(C(=O)[C@H]4CCc5[nH]c6nnc(-c7ccccc7O)cc6c5C4)CC3)no2)C(C)C)cc1 (single isomer, unassigned) = > 50%

Please fill in: Dmax reported for Cc1ncsc1-c1ccc(CNC(=O)[C@@H]2C[C@@H](O)CN2C(=O)[C@@H](NC(=O)CCCCCCCCCCCCCCCC(=O)N2CC(c3cc4cc(-c5ccccc5O)nnc4[nH]3)C2)C(C)(C)C)cc1 = < 50%

Please fill in: Dmax reported for O=C1CCC(N2C(=O)c3cccc(OCCCCC(=O)N4CC(c5cc6cc(-c7ccccc7O)nnc6[nH]5)C4)c3C2=O)C(=O)N1 (stereo not drawn) = > 50%

Please fill in: Dmax reported for Cc1ncsc1-c1ccc([C@H](C)NC(=O)[C@@H]2C[C@@H](O)CN2C(=O)[C@@H](c2cc(OCCNC34CC(c5cc6cc(-c7ccccc7O)nnc6[nH]5)(C3)C4)no2)C(C)C)cc1 (racemic) = > 75%
